System: USP19 (Homo sapiens (Human)) | Read-out: pIC50 | Origin: multiple publications
Sequence (O94966 whole entry): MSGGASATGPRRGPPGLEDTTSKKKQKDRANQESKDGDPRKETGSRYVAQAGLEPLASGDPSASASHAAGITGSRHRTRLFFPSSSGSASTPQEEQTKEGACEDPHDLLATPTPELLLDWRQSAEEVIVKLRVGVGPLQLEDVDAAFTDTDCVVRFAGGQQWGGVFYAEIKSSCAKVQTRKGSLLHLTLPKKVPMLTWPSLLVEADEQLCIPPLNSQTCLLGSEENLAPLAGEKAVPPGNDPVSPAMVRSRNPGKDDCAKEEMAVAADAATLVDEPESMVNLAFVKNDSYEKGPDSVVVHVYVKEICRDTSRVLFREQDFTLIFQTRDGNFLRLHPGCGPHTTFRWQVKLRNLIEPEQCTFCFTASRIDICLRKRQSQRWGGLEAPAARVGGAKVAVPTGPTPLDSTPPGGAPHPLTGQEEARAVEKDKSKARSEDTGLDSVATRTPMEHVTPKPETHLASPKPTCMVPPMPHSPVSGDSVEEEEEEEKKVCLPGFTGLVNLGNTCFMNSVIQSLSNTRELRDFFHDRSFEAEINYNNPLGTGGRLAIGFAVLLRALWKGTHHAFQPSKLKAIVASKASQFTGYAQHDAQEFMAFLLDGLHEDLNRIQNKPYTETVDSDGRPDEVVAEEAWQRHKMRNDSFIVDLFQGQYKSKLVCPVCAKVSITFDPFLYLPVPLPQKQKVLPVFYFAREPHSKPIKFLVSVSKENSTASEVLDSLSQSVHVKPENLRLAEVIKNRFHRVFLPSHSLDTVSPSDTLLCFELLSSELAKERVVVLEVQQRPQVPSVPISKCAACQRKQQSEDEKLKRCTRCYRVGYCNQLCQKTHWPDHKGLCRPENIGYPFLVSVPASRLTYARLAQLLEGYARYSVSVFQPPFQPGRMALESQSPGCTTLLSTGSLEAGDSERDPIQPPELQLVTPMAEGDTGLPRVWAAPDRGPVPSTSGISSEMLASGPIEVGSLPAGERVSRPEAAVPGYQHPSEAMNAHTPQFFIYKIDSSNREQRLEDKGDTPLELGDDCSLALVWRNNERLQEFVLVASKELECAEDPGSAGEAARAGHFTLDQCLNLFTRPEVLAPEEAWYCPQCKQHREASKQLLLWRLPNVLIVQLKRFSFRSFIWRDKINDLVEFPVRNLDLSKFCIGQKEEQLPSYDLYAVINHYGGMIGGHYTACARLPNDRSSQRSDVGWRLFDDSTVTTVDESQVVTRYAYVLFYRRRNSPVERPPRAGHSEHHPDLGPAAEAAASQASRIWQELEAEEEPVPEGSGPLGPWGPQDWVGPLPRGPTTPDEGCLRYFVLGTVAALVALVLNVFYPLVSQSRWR
pIC50: −log10 of the molar value.

Q: Report pIC50 from USP19 (Homo sapiens (Human)) testing of "COc1ccccc1-c1cc(=O)n(C[C@]2(O)CCN(C(=O)N3CCNC[C@H]3c3cc(F)ccc3F)CC23CCCC3)cn1"
Ans: > 6.30

Q: State, for USP19 (Homo sapiens (Human)), measured pIC50 of the compound listed here: O=C(NCc1ccc2c(c1)COC2)N1CCC(O)(Cn2cnc(-c3ccccc3)cc2=O)C2(CCCC2)C1 (centres unmarked)
Ans: 4.30 to 5.30

Q: State the measured pIC50 (USP19 (Homo sapiens (Human))) of C[C@H](CC1CCCCC1)C(=O)N1CCC(O)(Cn2cc(N3CCCC3=O)ncc2=O)C(C)(C)C1 (some centres unmarked)
Ans: 5.30 to 6.30

Q: Please report pIC50 with USP19 (Homo sapiens (Human)) for item "O=C(N1CC[C@@](O)(Cn2cnc(-c3ccccc3F)cc2=O)C2(CCCC2)C1)N1CCNC[C@H]1c1cc(F)ccc1F" .
Ans: > 6.30

Q: Write down the reported pIC50 (system: USP19 (Homo sapiens (Human))) of "C[C@@H]1CN(C(=O)c2cn(C[C@]3(O)CCN(C(=O)[C@H](C)CC4CCCCC4)CC3(C)C)c(=O)cc2-c2ccccc2)CCN1"
Ans: > 6.30

Q: State measured pIC50 of the compound "Cn1nccc1-c1cc(=O)n(C[C@]2(O)CCN(C(=O)N3CCOC[C@H]3c3ccc(F)cc3)CC23CCCC3)cn1" with USP19 (Homo sapiens (Human)).
Ans: > 6.30

Q: Quote pIC50 with test system USP19 (Homo sapiens (Human)) for "C[C@H](CC(=O)N1CCC(O)(Cn2cc(-c3cncnc3)c(-c3ccccc3)cc2=O)CC1)c1ccccc1"
Ans: 4.30 to 5.30

Q: Jot down pIC50 (USP19 (Homo sapiens (Human))) of "Cn1nc(C(F)(F)F)cc1-c1ccn(C[C@]2(O)CCN(C(=O)N3CCNC[C@H]3c3ccccc3)CC23CCCC3)c(=O)c1" .
Ans: > 6.30

Q: State measured pIC50 of the compound "C[C@H](CC1CCCCC1)C(=O)N1CC[C@@](O)(Cn2cc(C(=O)N3CCC(O)CC3)c(-c3ccccc3)cc2=O)C(C)(C)C1" with USP19 (Homo sapiens (Human)).
Ans: > 6.30

Q: Provide the reported pIC50 (system: USP19 (Homo sapiens (Human))) for COc1ccc2ccn(CC3(O)CCN(C(=O)[C@H](C)CC4CCCCC4)CC34CCCC4)c(=O)c2c1 (some centres unmarked)
Ans: 5.30 to 6.30

Q: Give pIC50 only, for CC(=O)N1CCN(C(=O)c2cn(CC3(O)CCN(C(=O)[C@H](C)CC4CCCCC4)CC3(C)C)c(=O)cc2-c2ccccc2)CC1 (some centres unmarked) , using USP19 (Homo sapiens (Human)) data.
Ans: > 6.30

Q: # return pIC50 for CC(Cc1ccccc1)C(=O)N1CCC(O)(Cn2cnc(-c3ccccc3F)cc2=O)CC1 (racemic) , test system: USP19 (Homo sapiens (Human))
Ans: 4.30 to 5.30

Q: Using USP19 (Homo sapiens (Human)) as the test system, report measured pIC50 of C[C@H](CC1CCCCC1)C(=O)N1CCC(O)(CN2CC(Cc3ccccc3)CC2=O)C(C)(C)C1 (some centres unmarked) .
Ans: 5.30 to 6.30

Q: Look up and report measured pIC50 (USP19 (Homo sapiens (Human))) for the following compound: "C[C@H](CC1CCCCC1)C(=O)N1CC[C@](O)(Cn2cc(C(=O)N(C)C)c(-c3ccccc3)cc2=O)C(C)(C)C1"
Ans: 3.60 to 4.30

Q: Would you please give the reported pIC50 of O=C(N1CCC(O)(Cn2cnc(-c3ccccc3)cc2=O)C2(CCCC2)C1)N1CCOCC1C1CCC1 (centres unmarked) with USP19 (Homo sapiens (Human))?
Ans: 3.60 to 4.30

Q: Identify measured pIC50 obtained with USP19 (Homo sapiens (Human)) for O=C([C@@H]1CCNC[C@H]1c1ccccc1)N1CCC(O)(Cn2cnc(-c3ccccc3)cc2=O)C2(CCCC2)C1 (some centres unmarked) .
Ans: > 6.30

Q: Name the value of pIC50 reported for "O=C(N1CC[C@@](O)(Cn2cnc(-c3cccc(F)c3)cc2=O)C2(CCCC2)C1)N1CCNC[C@H]1c1cccc(F)c1" when tested on USP19 (Homo sapiens (Human)).
Ans: > 6.30
